B1: IKZF1 (parent)
chain: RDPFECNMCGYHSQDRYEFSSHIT

variants of: B1; assay: protein stability index of a GFP-peptide fusion (GPS, HEK-293T) (PSI 1-6); higher = more stable; conditions: c terminus: a fixed tail appended;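 further: lentivirally expressed fusions sorted by FACS into six bins by GFP to DsRed ratio, PSI derived from sequencing read proportions per bin multiplied by bin number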
Fulfilled means recorded protein stability index is 2 or above; Not fulfilled means it is below 2.

// below: answered variants
- sequenceVariant: "D15R"
  assignedCategory: "Fulfilled"
- sequenceVariant: "E18Y"
  assignedCategory: "Not fulfilled"
- sequenceVariant: "Y11D"
  assignedCategory: "Fulfilled"
- sequenceVariant: "F19L"
  assignedCategory: "Not fulfilled"
- sequenceVariant: "C9Q"
  assignedCategory: "Fulfilled"
- sequenceVariant: "C9I"
  assignedCategory: "Fulfilled"

Does protein stability index meet or surpass 2 for `E18H` ?
Fulfilled

Also check `S21F`
Fulfilled

Next up: `F4Y`
Fulfilled

Try this variant next: `D2V`
Fulfilled

Try this variant too: `G10C`
Fulfilled
